Target: R. chinensis pepsin (Rhizopus chinensis, UniProt P06026)
Sequence (P06026 69-393): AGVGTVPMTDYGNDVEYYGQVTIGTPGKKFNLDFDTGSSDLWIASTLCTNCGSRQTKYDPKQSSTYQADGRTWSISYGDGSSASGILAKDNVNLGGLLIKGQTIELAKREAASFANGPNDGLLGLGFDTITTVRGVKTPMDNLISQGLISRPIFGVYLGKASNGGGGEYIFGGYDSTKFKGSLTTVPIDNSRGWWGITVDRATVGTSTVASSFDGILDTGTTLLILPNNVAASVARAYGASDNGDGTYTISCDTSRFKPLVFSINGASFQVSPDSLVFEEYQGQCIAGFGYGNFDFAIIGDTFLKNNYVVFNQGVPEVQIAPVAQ
Assay: biochemical
Settings: R. chinensis pepsin; read-out: IC50
measure: IC50

Prompt: Entry Brc1ccc(CO[C@H]2CNCC[C@@H]2c2ccccc2)cc1 [Compound 12] : reported IC50 = ?
Response: 2000 nM
